# system.under.test: Recombinant ROCK2 (amino acids 5-554) (Homo sapiens)
# Construct: ROCK2 (amino acids 5-554)
# Sequence (O75116 5-554): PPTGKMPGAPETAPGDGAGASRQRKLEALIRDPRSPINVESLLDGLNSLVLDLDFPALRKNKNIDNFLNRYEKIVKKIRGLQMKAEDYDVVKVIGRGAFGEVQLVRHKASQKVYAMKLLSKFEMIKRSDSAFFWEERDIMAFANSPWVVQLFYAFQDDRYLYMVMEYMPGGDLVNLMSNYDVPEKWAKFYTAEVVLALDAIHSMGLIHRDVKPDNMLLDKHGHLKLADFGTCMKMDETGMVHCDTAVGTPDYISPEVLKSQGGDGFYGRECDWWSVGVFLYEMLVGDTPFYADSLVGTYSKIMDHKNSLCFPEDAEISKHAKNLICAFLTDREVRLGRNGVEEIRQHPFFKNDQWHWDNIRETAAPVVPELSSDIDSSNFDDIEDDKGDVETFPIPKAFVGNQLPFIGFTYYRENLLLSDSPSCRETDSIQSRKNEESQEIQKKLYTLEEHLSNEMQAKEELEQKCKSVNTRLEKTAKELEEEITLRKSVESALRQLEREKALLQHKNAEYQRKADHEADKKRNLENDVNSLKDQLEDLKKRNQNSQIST
# experimental.details: ROCK inhibition assay, LANCE Ultra TR-FRET (ROCK2)
# Assay type: biochemical
# test.conditions: 1 mM of ATP
Reported IC50 by item:

Recorded IC50, per entry:
[[record]]
compound = "COc1ccc2c(c1)C[C@H](C(=O)c1cn(C[C@H]3CCN3CCF)c3cc(-c4c[nH]nc4Cl)ccc13)CO2"
readout_label = "IC50"
measured_value = "< 20 nM"

[[record]]
compound = "CCN(CC)CCn1cc(C(=O)C2COc3ccc(Cl)cc3C2)c2ccc(-c3cn[nH]c3OC)cc21 (centres unmarked)"
readout_label = "IC50"
measured_value = "< 20 nM"

[[record]]
compound = "COc1ccc2c(c1)CC(C(=O)c1cn(CCN(C)C)c3cc(-c4c[nH]nc4Cl)ncc13)CO2 (centres unmarked)"
readout_label = "IC50"
measured_value = "201 to 500 nM"

[[record]]
compound = "NC1(Cn2cc(C(=O)C3COc4ccc(Cl)cc4C3)c3ccc(-c4cn[nH]c4F)cc32)CC1 (centres unmarked)"
readout_label = "IC50"
measured_value = "< 20 nM"

[[record]]
compound = "CC(N)Cn1cc(C(=O)C2COc3ccc(F)cc3C2)c2cnc(-c3c[nH]nc3Cl)cc21 (centres unmarked)"
readout_label = "IC50"
measured_value = "< 20 nM"


Request: GET /values?readout=IC50&system=Recombinant ROCK2 (amino acids 5-554) (Homo sapiens)&item= COc1ccc2c(c1)CC(C(=O)c1cn(C[C@@H]3CCN3C)c3cc(-c4cn[nH]c4F)ccc13)CO2 (some centres unmarked)
Result: 21 to 200 nM

Request: Try CN1CC[C@@H]1Cn1cc(C(=O)C2COc3ccc(Cl)cc3C2)c2ccc(-c3cn[nH]c3Cl)cc21 (some centres unmarked) next.
Result: < 20 nM
